- Tgt: T1, cynomolgus monkey BCMA (cynomolgus monkey, UniProt A0A2K5UD97 1-53)
- T1 construct: Soluble analyte in SPR; construct not described; also called cyBCMA; Cyno BCMA
- Procedure summary: SPR, IgG immobilised, 25 C
I'd be grateful if you could share measured T ½ for these entries.
Hi! Could you send only the number? It should be in min, unit omitted.

// query T ½ value for entry L1.LGF/L3.KW/H3.AL (antibody, V domains shown, IgG) VH: EVQLLESGGGLVQPGGSLRLSCAASGFTFGSYAMTWVRQAPGKGLEWVSAISGSGGNTFYADSVKGRFTISRDNSKNTLYLQMNSLRAEDTAVYYCARVSPIAALMDYWGQGTLVTVSS VL: EIVLTQSPGTLSLSPGERATLSCRASQSLGSFYLAWYQQKPGQAPRLLIYGASSRATGIPDRFSGSGSGTDFTLTISRLEPEDFAVYYCKHYGWPPSFTFGQGTKVEIK 1

// query T ½ value for entry L1.LGF/L3.PY/H3.AP (antibody, V domains shown, IgG) VH: EVQLLESGGGLVQPGGSLRLSCAASGFTFGSYAMTWVRQAPGKGLEWVSAISGSGGNTFYADSVKGRFTISRDNSKNTLYLQMNSLRAEDTAVYYCARVSPIAAPMDYWGQGTLVTVSS VL: EIVLTQSPGTLSLSPGERATLSCRASQSLGSFYLAWYQQKPGQAPRLLIYGASSRATGIPDRFSGSGSGTDFTLTISRLEPEDFAVYYCQHYPYPPSFTFGQGTKVEIK 0.9

// query T ½ value for entry L1.GDF/L3.NY/P6E01 (antibody, V domains shown, IgG) VH: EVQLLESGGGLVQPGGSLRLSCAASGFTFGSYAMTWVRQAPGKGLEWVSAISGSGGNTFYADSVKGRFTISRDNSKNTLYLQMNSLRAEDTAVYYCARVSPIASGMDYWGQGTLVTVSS VL: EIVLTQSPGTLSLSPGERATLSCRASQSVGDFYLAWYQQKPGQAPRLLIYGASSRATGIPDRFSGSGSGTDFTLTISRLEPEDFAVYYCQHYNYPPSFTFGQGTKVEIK 1.5

// query T ½ value for entry L1.LGF/L3.KW/P6E01 (antibody, V domains shown, IgG) VH: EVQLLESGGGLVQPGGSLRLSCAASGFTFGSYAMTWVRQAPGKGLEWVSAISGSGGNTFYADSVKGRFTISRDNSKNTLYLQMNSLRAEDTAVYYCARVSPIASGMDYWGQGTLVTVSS VL: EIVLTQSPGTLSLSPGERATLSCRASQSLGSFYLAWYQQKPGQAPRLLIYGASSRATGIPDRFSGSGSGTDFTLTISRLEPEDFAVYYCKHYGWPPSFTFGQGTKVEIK 0.6

// query T ½ value for entry L1.LGF/L3.NY/H3.AQ (antibody, V domains shown, IgG) VH: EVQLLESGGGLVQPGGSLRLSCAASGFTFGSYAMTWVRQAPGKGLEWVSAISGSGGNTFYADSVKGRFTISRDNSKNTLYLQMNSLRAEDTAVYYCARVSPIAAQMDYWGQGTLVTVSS VL: EIVLTQSPGTLSLSPGERATLSCRASQSLGSFYLAWYQQKPGQAPRLLIYGASSRATGIPDRFSGSGSGTDFTLTISRLEPEDFAVYYCQHYNYPPSFTFGQGTKVEIK 7.8

Sourced from patent US20160297884A1
